EC50: recorded values
# systemUnderTest: JAK2 (Homo sapiens (Human))
# Sequence (O60674 849-1124): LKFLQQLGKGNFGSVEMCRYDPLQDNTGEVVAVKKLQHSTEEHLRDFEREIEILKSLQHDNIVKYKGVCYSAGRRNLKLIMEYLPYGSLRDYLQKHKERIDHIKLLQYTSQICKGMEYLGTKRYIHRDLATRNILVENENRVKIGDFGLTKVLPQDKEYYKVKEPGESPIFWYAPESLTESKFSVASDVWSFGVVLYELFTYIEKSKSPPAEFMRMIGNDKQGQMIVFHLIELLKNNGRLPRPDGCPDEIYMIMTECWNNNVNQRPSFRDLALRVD
# procedureText: JAK kinase assay (HTRF), JAK2
# conditionSet: catalytic domain, His-tag, ATP at Km (4 μM)
# Description: Human baculovirus-expressed JAK1, 2, 3 and TYK2 were purchased from Carna Biosciences, Inc. All four purified enzymes contain only the catalytic domain. […] Inhibition of phosphorylation of a synthetic peptide was measured in an HTRF-based assay using the TK substrate-Biotin from the Cisbio HTRFKinEASE TK kit. […] The HTRF signal is read using an Envision plate reader.
Value expressed in nM; do not type the unit.

Study these solved cases before continuing.
compound: C[C@]12CN(c3cnc(C#N)cn3)CC[C@H]1CCN(c1ncnc3[nH]ccc13)C2 (racemic)
systemUnderTest: JAK2 (Homo sapiens (Human))
EC50 [nM]: 25
--
compound: C[C@]12CN(c3ccc(C#N)cn3)C[C@H]1CCN(c1ncnc3[nH]ccc13)C2 (racemic)
systemUnderTest: JAK2 (Homo sapiens (Human))
EC50 [nM]: 30

Please find the next compound below.
So what does the record say about EC50 for C[C@]12CN(C#N)CC[C@H]1CCN(c1ncnc3[nH]ccc13)C2 (relative stereo) [Example 2] ?
6
